System: 883617-216-R-J1-PDC complex spheroid viability;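 note: spheroids exposed to compounds for seven days before readout; 100% = DMSO vehicle control viability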
method description: Anticancer human tumor 883617-216-R-J1-PDC patient-derived bladder carcinoma cell line growth inhibition [POLQ]
stated conditions: second compound 0.316 µM; first compound 10 µM; active compounds read low
measured endpoint: viability, T/C (%)
Output spec: scalar in %, unitless text.

I would be grateful if you could share the reported viability, T/C for C=CC(=O)N1CCN(c2nc(=O)n(-c3c(C)ccnc3C(C)C)c3nc(-c4c(O)cccc4F)c(F)cc23)C(C)C1 (stereo not given) + Nc1ccc(C#CCN(C(=O)Cc2ncc(C(F)(F)F)cc2C(F)(F)F)c2ccc(F)cc2)nn1 .
73.4

I would be grateful if you could share the reported viability, T/C for CC(C)n1c(=O)n(C)c2cnc3cc(F)c(-c4ccc(OCCCN5CCCCC5)nc4)cc3c21 + Cc1cccc(N(C)C(=O)C2C(O)CCN2c2nc(C)cc(C(F)(F)F)c2C#N)c1 .
59

I would be grateful if you could share the reported viability, T/C for CCc1cc2c(N3CCc4c(cc(Cn5ccnc5)cc4-c4cn(C)nc4C(F)(F)F)C3=O)cc(C)nc2c(OC)n1 + Nc1ccc(C#CCN(C(=O)Cc2ncc(C(F)(F)F)cc2C(F)(F)F)c2ccc(F)cc2)nn1 .
57.4

I would be grateful if you could share the reported viability, T/C for O=C(c1cc(Cc2n[nH]c(=O)c3ccccc23)ccc1F)N1CCN(C(=O)C2CC2)CC1 + Cc1cccc(N(C)C(=O)C2C(O)CCN2c2nc(C)cc(C(F)(F)F)c2C#N)c1 .
70.4

I would be grateful if you could share the reported viability, T/C for CC(C)n1c(=O)n(C)c2cnc3cc(F)c(-c4ccc(OCCCN5CCCCC5)nc4)cc3c21 + Nc1ccc(C#CCN(C(=O)Cc2ncc(C(F)(F)F)cc2C(F)(F)F)c2ccc(F)cc2)nn1 .
73.8
